# protocol notes: yeast display, Sf9 membrane polyspecificity reagent, FACS + sequencing; frameworks hold sequencing errors
quantity measured: polyreactivity (PSR sort gate)

{"columns": ["chain", "quantity measured", "observed measurement"],
 "data": [
  ["QDQLVESGGGLVQAGGSLRLSCAASGNIFWSNAMGWYRQAPVKERELVAGIRSTGGSTYYADSVKGRFTISRDNAKNTVYLQMNSLKPEDTAVYYCAAEHWYSTPWWTDDYWGQGTQVTLSS", "polyreactivity (PSR sort gate)", "high polyreactivity"],
  ["QVQLVESGGGLVQAGGSLRLSCAASGSTLRGYTMGWYRPAPGKERELVAAISWSGASTYYADSVKGRFTISRDSAKNTVYLQMNSLKPEVTAVYYCAVRYWAPYDEYGYWGQGTQVTVSS", "polyreactivity (PSR sort gate)", "high polyreactivity"],
  ["QVQLVESGGGLVQAGGSLRLSCAASGSTLYVNAMGWYRQAPGKERELVAAISWSGGSTNYADSVKGRFTISRDNAKNTVYLQMNSLKPEDTAVYYCNVDSVVWDNAWYLYDYWGQGTQVTVSS", "polyreactivity (PSR sort gate)", "low polyreactivity"],
  ["QVQLVESGGGLVQAGGSLRLSCAASGSTFLKYAMVWYRQAPGKERELVAAITSDGTTYADSVKGRFTISRDNAKNTVYLQMNSLKPEDTAVYYCAKDYRHPTFDYWGQGTQVTVSS", "polyreactivity (PSR sort gate)", "low polyreactivity"],
  ["QVQLVESGGGLVQAGGSLRLSGAASGRTFRGNVMGWYRQAPGKEREFVAAITKSDGSTYYADSVKGRFTISRDNAKNTVYLQMNSLKPEDTAVYYCAARTARTGWPWFRYDYWGQGTQVTVSS", "polyreactivity (PSR sort gate)", "low polyreactivity"]
]}

## Input Query: polyreactivity (PSR sort gate); subject: `QVQLQDSGGGLVQAGGSLRLICAASVTIFSYSDLGWYRQAPGKERKFVAGIGFGSNSNFADSVRGRFTISRDNAKNTVYLQMNSLKPEDTAVYYCAAVWFDYSTHRYWGQGTKVTVSS`
## Output high polyreactivity

## Input Query: polyreactivity (PSR sort gate); subject: `QVQLVESGGGLVQAGGSLRLSCAASGRSIAYYAMGWYRQAPGKERELVAAINWSGGRTYYADSVKGRFTLSRDNAKNTVYLQMNSLKPEETAVYYCNAVYNESRGSYQDDYWGQGTQVTVSS`
## Output high polyreactivity

## Input Query: polyreactivity (PSR sort gate); subject: `QVQLVESGGGLVQAGGSHRLSCAASGRIFGTYAMGWYRQAPGKDRELVAAISFSGGSTYYADSVKGRFTISRDNAKNTVYLQMNSLKPDDTAVYYGAAGYRTYYGYRYGYWGQGTQVTVSS`
## Output high polyreactivity

====

# protocol notes: yeast display, Sf9 membrane polyspecificity reagent, FACS + sequencing; frameworks hold sequencing errors

{"columns": ["chain", "polyreactivity (PSR sort gate)"],
 "data": [
  ["QVQLVESGGGLVQAGGSLRLSCAASGGTFLSNAMGWYRQAPGKERELVAAISASSGSTYYADSVKGRFTISRDNAKNPVYLQMNSVKPEDTAVYYCAKERRASVVRYDYWGQGTQVTVSS", "low polyreactivity"],
  ["QVQLVESGGGLDQAGGSLLLSCAASGSIFRSNAMGWYRQAPRKERELVAAIDYSGTSTTYADSVKGRFSISRDNAKNTVYLQMNSLKPEDTAVYYCNADGYYRGYWSGYEYWGQGTQGTVSS", "low polyreactivity"]
]}

====

# protocol notes: yeast display, Sf9 membrane polyspecificity reagent, FACS + sequencing; frameworks hold sequencing errors
quantity measured: polyreactivity (PSR sort gate)

{"columns": ["chain", "observed measurement"],
 "data": [
  ["QVQLVETAGGLVQAGGTLRLSCPASGFTIFDNAMGWSRHPPGQERELVAVITKRGGSTYYADSVKGRFTISRYNAKNTVYLQMNILKPEDTAVYYCAADSRFSNFGVTQVTSDYWGQGTQVTVSS", "low polyreactivity"],
  ["QVQLVESGGGLVQAGGSLRLSCAASGFIFRKYAMGWYRQAPGTERELVAAIRQRGGTTYYADSVKGRFTISRDNAKNTVSLQMNSLKPEDTAVNYCAAPYSSAYKYDYWGQGTQVTVSS", "high polyreactivity"],
  ["QVHLVESGGGLVQAGGSLRLSCADSGSIFRYYAMGWYRQAPGKEREMFARISWSGVSTYYADSVKGRFTISRDNAKNTVYLQMNSLKTEDTADYYCAGVDFRGYRYDLDYWGQGTQVTVSS", "high polyreactivity"],
  ["QVQLVESGGGLVQAGGSLRLSCAASGGIIGHYDMGWYRQAPGKERELVAAIIGGGSTNYADSVKGRFTISRDNAKNTVYLQMNSLKPEDTAVYYCNVAHGTQGWWGRNDYWGQGTQVTVSS", "low polyreactivity"]
]}

## Input Query: polyreactivity (PSR sort gate); subject: `QVQLVESGGGLVQAGGSLRLSCAASGSIFAHYAMGGYRQAPGKERELVAAITRGGGTYYADSVKGRFTLSRDNAKNTVYLQMNSVKPEDTAVYYCARIYYVSIYRYDYWGQGTQVTVSS`
## Output high polyreactivity

====

# protocol notes: yeast display, Sf9 membrane polyspecificity reagent, FACS + sequencing; frameworks hold sequencing errors
quantity measured: polyreactivity (PSR sort gate)

Reference set, count: 4
{"columns": ["chain", "polyreactivity (PSR sort gate)"],
 "data": [
  ["QVQLVESAGGLVQAGGSLRLSCAASGSTQVIYHMGWNRQAPGNERYIVAAITYGGGRTYYADSVKGRFTISSDNAKNTVYLQMNSLKPEDTAYYYCAAYSYYYTWNPGYWGQGTQVTVSS", "high polyreactivity"],
  ["QVQLVESGGGLVQAGGSLRLSCAASGSIFTRNAMGWYITAPGKEREFVAAISSSGVSTYYADSVKGRLTISRDNAKNTVYLQMNSLKPEDTAVYYCAARWGTKSGRYDYWGQGTQVTVSS", "high polyreactivity"],
  ["QVQLVESGGCLVQAGGSLRLSCAPSGLTMHYYAMGWYRQAPATERELVAAITYSCGSTYYADSVKGRFTISLDNAKNTVYLQMNILKAEDTAVYYCAADTFPTTSEVDYWGQGTQVTVSS", "low polyreactivity"],
  ["QVQLVESGGGLVQAGGSLRLSCAASGRIRYAMGWYRQAPGKERELVAGITWSGGRTYYADSVKGRFTISRDNAKNTVYLQMNSLKPEDTAVYYCAAATPYRYNYWGQGTQVTVSA", "high polyreactivity"]
]}

--- query ---
## Input Query: polyreactivity (PSR sort gate); subject: `QVQLVESGGGLVQAGGSLRLSCAASGFTFWSYAMGWYRQAPGKERELVAGITIDGNTYYADSVKGRFTISRDNAKNTVYLQMNSLKPEDTAVYYCATPVYRSTYEYDYWGQGTQVTVSS`
## Output low polyreactivity

====

# protocol notes: yeast display, Sf9 membrane polyspecificity reagent, FACS + sequencing; frameworks hold sequencing errors
quantity measured: polyreactivity (PSR sort gate)

Reference set, count: 4
{"columns": ["chain", "polyreactivity (PSR sort gate)"],
 "data": [
  ["QVQLVESRGGLVQAGGRLRLSCAASGSIFDWYAMGWYRQAPGKERELVADITWSGDSTYYADSVKGRFTISRDNAKNTVYLQMNSLKPEDTAVYYCAADIWFNTYYEYDYWGQGTQVTVSS", "high polyreactivity"],
  ["QVQLVESGGGLVQAGGSLRLSCAASGRIFRYNAMGWYRQAPGKERELVATISWSGGRTYYADSVKGRFTISRDNAKNTVYLQMNSLKPEDNAVYYCAAYSYRGFGEYDYWGQGTQVTVSS", "high polyreactivity"],
  ["QVQLVEAGGGLVQAGGSLRLSCAASGIIFYLYTMGWYRPAPGKERELVAAISSSDGSTYYADSVKGRFTISRDNAKNTVYLQMNSLKPEDTAVYYCAAEYRGYLDDYYYWGQGTQVTVSS", "high polyreactivity"],
  ["QVQLVESGGGLVQAGGSLRLSCAASGSIFITYAMGWYRQAPGKERELVAAIRDSGDRTYYADSVKGRFTISRDNAKNTVYLQMNSLKPEDTAVYFCNARWQEPLKYDYWGQGTQVTVSS", "low polyreactivity"]
]}

--- query ---
## Input Query: polyreactivity (PSR sort gate); subject: `QVQLVESGGVLVQAGGSLRLSCAASGITFNSYAMGWYRQAPGKERELVASISWIGGSTYYADSVKGRFTISRDNAKNTVYFQMNSLKPEDTAVYYCAVDKGTDYYYDVDYWGQGTQVTVSS`
## Output low polyreactivity

====

# protocol notes: yeast display, Sf9 membrane polyspecificity reagent, FACS + sequencing; frameworks hold sequencing errors
quantity measured: polyreactivity (PSR sort gate)

{"columns": ["chain", "quantity measured", "observed measurement"],
 "data": [
  ["QVQLVESGGGLVQAGGSLRLSCAASGFTLVYYVMGWYRQAPGKERELVARISRGGSTNYADSVKGRFTISRDNAKNTVYLQMNSLKPEDTAVYYCAARRTSWQGFNYWGQGTQVTVAS", "polyreactivity (PSR sort gate)", "high polyreactivity"],
  ["QVQLVESGGGLVQAGGSLRLSCAASGNPFTWYTMGWYRPAPGKERDLVAVSTSDGSKYYADSVKGRFTISRDNAKNTVYLQMNSLKPEDTAVYYCNAGGGTNYGSGYWYGYYYWGQGTQVTVSS", "polyreactivity (PSR sort gate)", "low polyreactivity"],
  ["QVQLVESGGGLVQAGGSLRLSCAASGSTFWHYAMGWYRQAPGKERELVASISGRGTSTYYADSVKGRFTLSRDNAKNTVYLQMNSLKPEDTAVYYCAATKWYRAFDYWGQGTQVTVSS", "polyreactivity (PSR sort gate)", "low polyreactivity"],
  ["QVQLVESGGGLVQAGGSLRLSSAASGRIFYKYVMGWYRQATGKERELVATITSGGSTYYADSVKGRFTISRDNAKNTVYLQMNSLKPEDTAVFYCAARKYYSRAYDYWGQGTQVTVSS", "polyreactivity (PSR sort gate)", "high polyreactivity"],
  ["QVHLVESGGGLVQAGGSLRLSCAASGSTFTLNAMGWYRQAPGKERELVAAITWDGGSTYYADSVKGRFTISRDNAKNTVYLQMNSLKPEDTAVYFCAADREFWWEVVYTYEYYYWGQGTQVTVSS", "polyreactivity (PSR sort gate)", "low polyreactivity"]
]}

--- query ---
## Input Query: polyreactivity (PSR sort gate); subject: `QVQLEESGGGLVQAGGSLRLICAASGRIFDYYTMGWYRQAPGKERELVAAISSSGGSTYYADSVKGRFTISRDNAKNTVYLQMNSLKPEDPAVYYCNASVINEMNYWGQGTQVTVSS`
## Output low polyreactivity
